target: p53 Y220C (Homo sapiens, UniProt P04637, Y220C); assay: Luciferase Reporter Assay (Luc), p53 response element, NClH1299 cells with inducible p53 Y220C; format: cell-based; settings: luciferase reporter, NClH1299 inducible p53 Y220C, 6 hour; read-out: Luc P53 Y220C AC50
I'd be grateful if you could share measured AC50 for these entries.

Item under review: CNC(=O)c1ccc(OC)c(NCC#Cc2cc3c(N[C@@H]4CCN(C)C[C@@H]4F)cccn3c2SC(F)(F)F)c1 . Reported AC50?
< 750 nM

# iterate: CNC(=O)c1cc(NCC#Cc2cc3c(N[C@@H]4CCN(C)C[C@@H]4F)nccn3c2SC(F)(F)F)c2nccn2c1
< 750 nM

Lookup CNC(=O)c1cnc(NCC#Cc2nc3c(N[C@@H]4CCN(C)C[C@@H]4F)cccn3c2SC(F)(F)F)n1C
> 3000 nM

Please do the same for CNC(=O)c1cnc(OC)c(NCC#Cc2nc3c(N[C@@H]4CCN(C)C[C@@H]4F)cccn3c2SC(F)(F)F)c1 as well.
< 750 nM

====

Field: IC50. Provide a value for each of the compounds that follow.
System: H1299 p53 Y220C
Assay: Cell Proliferation Assay (CellTiter-Glo, CTG), H1299 p53 Y220C (NClH1299-inducible p53 Y220C)
Format: cell-based
Conditions: Homo sapiens, NCI-H1299, 120 h, CellTiter-Glo, H1299 p53 Y220C, 5 days
Experimental: Inducible p53 Y220C and R273H constructs (Tet-One inducible expression system; Takara) were stably expressed in NClH1299 cells by lentiviral transduction. NUGC3, A549, BxPC3, T3M4, HuH7, HCC2935, MFE296, NClH1299, NClH1299-inducible p53 Y220C, and NClH1299-inducible p53 R273H cell lines were used for cell proliferation assay. […] The luminescent signal was measured by PheraStar microplate reader and IC50 was calculated.

Requested read-out IC50, target or system H1299 p53 Y220C, entry COc1cc(C(=O)N2CCOCC2)ccc1NCC#Cc1nc2c(N[C@@H]3CCN(C)C[C@@H]3F)cccn2c1SC(F)(F)F
< 750 nM

Query CNC(=O)c1ccc(NCC#Cc2nn3c(N[C@@H]4CCN(C)C[C@@H]4F)cccc3c2SC(F)F)c(OC)c1 next
< 750 nM

Queued: CN1CC[C@@H](Nc2cccn3c(CC(F)(F)F)c(C#CCN)nc23)[C@@H](F)C1
> 3000 nM

Try the compound COc1cc(S(N)(=O)=O)ccc1NCC#Cc1nc2c(N[C@@H]3CCN(C)C[C@@H]3F)cccn2c1CC(F)(F)F
750 to 1500 nM

Now consider COc1cc(C(=O)N(C)C)ccc1NCC#Cc1nc2c(N[C@@H]3CCN(C)C[C@@H]3F)cccn2c1CC(F)(F)F .
750 to 1500 nM

====

I'd appreciate it if you could supply pIC50 values for the items below.
tested on: H1299 p53 R273H; assay: Cell Proliferation Assay (CellTiter-Glo, CTG), H1299 p53 R273H (NClH1299-inducible p53 R273H); assay type: cell-based; conditions: Homo sapiens, NCI-H1299, 120 h, CellTiter-Glo, H1299 p53 R273H, 5 days
pIC50: −log10 of the molar value.

Please give the measured pIC50 for this molecule: CNC(=O)c1ccc(OC)c(NCC#Cc2cc3c(N[C@@H]4CNC[C@@H]4F)nccn3c2SC(F)(F)F)c1
≤ 5.00

Okay, and COc1cc(S(C)(=O)=O)ccc1NCC#Cc1nc2c(NC3CCN(C4CC4)CC3)cccn2c1CC(F)(F)F ?
5.10 to 5.30

What about CNC(=O)c1ccc(OC)c(NCC#Cc2nc3c(N[C@@H]4CCN(C)C[C@@H]4F)cccn3c2SC(F)(F)F)c1 ?
> 5.30

Likewise for CNC(=O)c1ccc(NCC#Cc2nc3c(NC4CCN(C)CC4)cc(NC(=O)CCl)cn3c2CC(F)(F)F)c(OC)c1 ?
≤ 5.00

Entry CNC(=O)c1cncc(NCC#Cc2nc3c(N[C@@H]4CCN(C)C[C@@H]4F)cccn3c2SC(F)(F)F)c1 please
≤ 5.00

Likewise for CNC(=O)c1ccc(OC)c(NCC#Cc2nc3c(NC4CC5(C4)CN(CC(F)F)C5)cccn3c2SC(F)(F)F)c1 ?
≤ 5.00

Similarly, CNC(=O)c1ccc(NCC#Cc2nc3c(N[C@@H]4CCN(C)C[C@@H]4F)cccn3c2CC(F)(F)F)c(C#N)c1 ?
≤ 5.00

Now the same for COc1cc(S(N)(=O)=O)ccc1NCC#Cc1nc2c(N[C@@H]3CCN(C)C[C@@H]3F)cccn2c1CC(F)(F)F
≤ 5.00

Similarly, COc1ccc(C(N)=O)nc1NCC#Cc1nc2c(N[C@@H]3CCN(C)C[C@@H]3F)cccn2c1SC(F)(F)F ?
≤ 5.00

Queued: CNC(=O)c1ccc(NCC#Cc2nc3c(N[C@@H]4CCn5nccc5C4)cccn3c2SC(F)(F)F)c(OC)c1
≤ 5.00

What do you have for COc1cc(P(C)(C)=O)ccc1NCC#Cc1cc2c(N[C@@H]3CCN(C)C[C@@H]3F)nccn2c1SC(F)(F)F ?
≤ 5.00

Also, CNC(=O)c1ccc(OC)c(NCC#Cc2nn3c(N[C@@H]4CCN(C)C[C@@H]4F)ccnc3c2SC(F)(F)F)c1 please.
> 5.30

Repeat for the following molecule: CNC(=O)c1ccc(NCC#Cc2nn3c(N[C@@H]4CCN(C)C[C@@H]4F)cccc3c2CC(F)(F)F)c(OC)c1
≤ 5.00

What would you report for CNC(=O)c1ccc(NCC#Cc2nc3c(N[C@@H]4CCN(C)C[C@@H]4F)cccn3c2SC(F)(F)F)c(OCCOC)c1 ?
5.00 to 5.10

Also CN1CC[C@@H](Nc2cccn3c(CC(F)(F)F)c(C#CCCN)nc23)[C@@H](F)C1 ?
≤ 5.00

Similarly, CNC(=O)c1ccc(NCC#Cc2nc3c(N[C@@H]4CCN(C)C[C@@H]4F)cccn3c2CC(F)(F)F)c(OC(F)(F)F)c1 ?
≤ 5.00
